Biological target: Recombinant CbpF from clinical strain 2B3 (group II), passenger domain, pOPINE construct
Assay: ELISA
Settings: 3 pmol CbpF; 15 fmol CEACAM1-3-Fc mutant; developed for 5 hrs at 37°C; parent: est. 0.66; read off a plot
Observation type: response (A405)

1) CEACAM1-3-Fc (containing N-A1-B1 domains) Y34S ... 0.012
2) CEACAM1-3-Fc (containing N-A1-B1 domains) F29Y ... 0.082
3) CEACAM1-3-Fc (containing N-A1-B1 domains) F29I ... 0.017
4) CEACAM1-3-Fc (containing N-A1-B1 domains) Y34A ... 0.043
5) CEACAM1-3-Fc (containing N-A1-B1 domains) I91A ... 0.01
6) CEACAM1-3-Fc (containing N-A1-B1 domains) I91G ... 0.017
7) CEACAM1-3-Fc (containing N-A1-B1 domains) F29G ... 0.012
8) CEACAM1-3-Fc (containing N-A1-B1 domains) Q44E ... 0.017
9) CEACAM1-3-Fc (containing N-A1-B1 domains) F29R ... 0.013
10) CEACAM1-3-Fc (containing N-A1-B1 domains) Y34F ... 0.013

###

Each item that follows carries a reported response.
Target: Recombinant CbpF from clinical strain 2B3 (group II), passenger domain, pOPINE construct
Experiment: ELISA
Conditions: 3 pmol CbpF; 15 fmol CEACAM1-3-Fc mutant; developed for 5 hrs at 37°C; parent: est. 0.66; read off a plot
Observation type: response (A405)

1) CEACAM1-3-Fc (containing N-A1-B1 domains) V96A ... 0.87
2) CEACAM1-3-Fc (containing N-A1-B1 domains) Q89N ... 0.17
3) CEACAM1-3-Fc (containing N-A1-B1 domains) I91L ... 0.006
4) CEACAM1-3-Fc (containing N-A1-B1 domains) Q44L ... 0.021
5) CEACAM1-3-Fc (containing N-A1-B1 domains) G47L ... 0.008
6) CEACAM1-3-Fc (containing N-A1-B1 domains) Q44R ... 0.013

###

Target: Recombinant CbpF from Fn ATCC 25586 (group I), passenger domain (UniProt Q8RIS0)
Experiment: ELISA
Conditions: 3 pmol CbpF; 15 fmol CEACAM1-3-Fc mutant; developed for 5 hrs at 37°C; parent: est. 0.43; read off a plot
# response values compiled below
Observation type: response (A405)

1) CEACAM1-3-Fc (containing N-A1-B1 domains) Y34F ... 0.017
2) CEACAM1-3-Fc (containing N-A1-B1 domains) F29Y ... 0.017
3) CEACAM1-3-Fc (containing N-A1-B1 domains) Q44E ... 0.02
4) CEACAM1-3-Fc (containing N-A1-B1 domains) Y34S ... 0.017
5) CEACAM1-3-Fc (containing N-A1-B1 domains) Y34A ... 0.021
6) CEACAM1-3-Fc (containing N-A1-B1 domains) F29G ... 0.012
7) CEACAM1-3-Fc (containing N-A1-B1 domains) I91G ... 0.066
8) CEACAM1-3-Fc (containing N-A1-B1 domains) F29I ... 0.012
9) CEACAM1-3-Fc (containing N-A1-B1 domains) F29R ... 0.013
